Assay: Ascending multiple dose pharmacokinetics of enteric coated capsules in healthy subjects
Assay type: in vivo, human
Conditions: human, plasma, po, 75 mg, healthy subjects, single oral dose 75 mg, day 1; read-out: AUC0-∞ (Mean)
Description: Ascending multiple doses of 25, 50, 75, 100, 150, and 250 mg Compound A.HCl were administered as twice-daily regimen (q12h) for 14 days in cohorts of 8 healthy subjects (6 active and 2 placebo). Blood samples for Compound A.HCl analysis were obtained on days 1 and 14 within 2 hours of test article administration and at various time points from 0.5 to 48 hours after test article administration. Doses were administered orally after an overnight fast of at least 10 hours on these 2 days. […]
MEASURED PROPERTY: AUC(0-inf)
Show the value, then the unit it is measured in.

Please report the recorded AUC(0-inf) for Cl.c1cc2c3c(c1)[C@H]1CCC[C@H]1CN3CCNC2 [Compound A.HCl] .
16.9 ng·h/mL

###

Assay: Ascending multiple dose pharmacokinetics of enteric coated capsules in healthy subjects
Format: in vivo, human
Conditions: human, plasma, po, 25 mg, healthy subjects, multiple oral doses (q12 h) 25 mg, day 14; read-out: AUCss (AUC0-12) (Geom. Mean)
Method: Ascending multiple doses of 25, 50, 75, 100, 150, and 250 mg Compound A.HCl were administered as twice-daily regimen (q12h) for 14 days in cohorts of 8 healthy subjects (6 active and 2 placebo). Blood samples for Compound A.HCl analysis were obtained on days 1 and 14 within 2 hours of test article administration and at various time points from 0.5 to 48 hours after test article administration. Doses were administered orally after an overnight fast of at least 10 hours on these 2 days. […]
MEASURED PROPERTY: AUC(0-t) (ng·h/mL)
Express your answer in ng·h/mL, writing the number without its unit.

Please report the recorded AUC(0-t) for Cl.c1cc2c3c(c1)[C@H]1CCC[C@H]1CN3CCNC2 [Compound A.HCl] .
8

###

Experiment: Ascending multiple dose pharmacokinetics of enteric coated capsules in schizophrenic patients
Type: in vivo, human
Details: human, plasma, po, 100 mg, Schizophrenia patients, multiple oral doses (q12 h) 100 mg, day 10; read-out: AUCss (AUC0-12) (Geom. Mean)
MEASURED PROPERTY: AUC(0-t) (ng·h/mL)
Express your answer in ng·h/mL, writing the number without its unit.

Please report the recorded AUC(0-t) for Cl.c1cc2c3c(c1)[C@H]1CCC[C@H]1CN3CCNC2 [Compound A.HCl] .
31.2

###

Test: Ascending multiple dose pharmacokinetics of enteric coated capsules in healthy subjects
Format: in vivo, human
Conditions: human, plasma, po, 25 mg, healthy subjects, multiple oral doses (q12 h) 25 mg, day 14; read-out: Cmax (Geom. Mean)
Procedure: Ascending multiple doses of 25, 50, 75, 100, 150, and 250 mg Compound A.HCl were administered as twice-daily regimen (q12h) for 14 days in cohorts of 8 healthy subjects (6 active and 2 placebo). Blood samples for Compound A.HCl analysis were obtained on days 1 and 14 within 2 hours of test article administration and at various time points from 0.5 to 48 hours after test article administration. Doses were administered orally after an overnight fast of at least 10 hours on these 2 days. […]
MEASURED PROPERTY: Cmax (ng/mL)
Express your answer in ng/mL, writing the number without its unit.

Please report the recorded Cmax for Cl.c1cc2c3c(c1)[C@H]1CCC[C@H]1CN3CCNC2 [Compound A.HCl] .
1.16
